- targetOfAssay: C-X-C chemokine receptor type 3 (Homo sapiens, UniProt P49682)
- Sequence (P49682 whole entry): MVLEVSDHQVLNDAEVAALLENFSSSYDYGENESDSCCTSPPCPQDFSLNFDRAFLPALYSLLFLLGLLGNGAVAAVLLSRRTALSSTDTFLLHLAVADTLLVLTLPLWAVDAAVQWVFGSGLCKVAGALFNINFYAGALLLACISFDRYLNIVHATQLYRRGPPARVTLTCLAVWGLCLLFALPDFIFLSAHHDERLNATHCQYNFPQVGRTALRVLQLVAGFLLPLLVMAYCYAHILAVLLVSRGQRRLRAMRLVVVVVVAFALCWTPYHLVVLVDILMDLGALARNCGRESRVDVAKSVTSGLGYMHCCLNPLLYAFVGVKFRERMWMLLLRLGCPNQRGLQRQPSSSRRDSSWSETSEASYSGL
- runDescription: Antagonist activity at human CXCR3 expressed in CHO cell […] assessed as inhibition of calcium flux by FLIPR
- Format: functional, cell-based
endpointLabel: IC50 (nM)

Solved cases below.
N=c1n(CC(=O)c2ccc(Cl)cc2)c2cccc(Cl)c2n1C[C@@H]1CCCN(C(=O)c2cccc3cccnc23)C1 | 20
CN(Cc1ccccc1)C(=O)CCn1c(=N)n(CC(=O)c2ccc(Cl)cc2)c2ccccc21 | 200

A: CCc1cccc2c1n(CCCN(C)C(=O)Cc1ccccc1)c(=N)n2CC(=O)c1ccc(Cl)cc1
B: CCn1c(=N)n(CC(=O)c2ccc(Cl)cc2)c2ccccc21
Of A versus B , which is the one with smaller reported IC50? Let me know the label of the one you choose.
A
